Test system: K4 kissing-loop RNA reporter;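 also: bound reporter read as fluorescence of individual clusters on recovered sequencing chips by microscopy, with normalized cluster intensities fitted with a binding model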
Assay: apparent KD of K4 kissing-loop reporter; higher = weaker reporter binding
Conditions: Eterna round: R107; input ligand: arginine 13.2 mM
# apparent KD of K4 kissing-loop reporter per record follows
Give the number; nM is assumed, so skip it.

Use the examples below as a reference point.
Item sequence	Quantity kind	Endpoint value
UAUAGAGUGACGGCCGCCACUAUUGUGAUUUAAUUGUUUGAGUGAUGUUUUGAUGUUUGAUUUUGUAGGACCGGGUUAUAUGUUA [zdzzmullin]	apparent KD of K4 kissing-loop reporter	718
UGGAGUUGACGAAAAGUCAACUCCUGGGAAGGAGCGGACGAAAGUCCAGGUAGGUCGCCCACUACCAGUGAUGUUGGUACCUAAA	apparent KD of K4 kissing-loop reporter	320
AAUCACCGAGCGGCCGCCACUGCACAAAGCGAGUUUAUAGACACGGUACUGGAGUGAUGUUCGAGCAGGACCGGGCUAACUAAGC [theeternabot_sameState_KL_Trp_B_12]	apparent KD of K4 kissing-loop reporter	610
GGAAUAACCUGGGAUACCAGUCGGAGGACUAGGGAUCGGAGUGAUGUUCUGGGAUGUUUCGGCCCUUGGCAGCUCUGGUUUUCCG [#2 Exclusion - Theophylline B Attempt #1 (HarryS)]	apparent KD of K4 kissing-loop reporter	286
ACUGAGCAUGCGGCCGCCACUUCAGAACGUCGCCCAAAGGGCGACGCCUCCAGAGUGAUGUUCUGGAGGACCGGGCAUGUUCAGA [Omei KL Tryp B Exc A v1]	apparent KD of K4 kissing-loop reporter	300

Query: Name the recorded apparent KD of K4 kissing-loop reporter for CAUCUGGACCAAGGAUAUGUGGGCAUAAUAAAAUUACCACCUUAUUUGCAGUAAGUGAUGUUUAACACAGAAGGUGGACAUAGAC [theeternabot_exclusion_KL_FMN_B_10] .
Response: 725
